Entry source: ChEMBL document CHEMBL1275486

kcat overview
- System: Escherichia coli
- test_protocol: Activity of Escherichia coli beta-lactamase VIM-1 by spectrophotometry
// return numeric value only (unit: s⁻¹, not printed)

compound | measured_target | readout_units | measured
C[C@@H](O)[C@H]1C(=O)N2C(C(=O)O)=C(S[C@@H]3CN[C@H](C(=O)N(C)C)C3)[C@H](C)[C@H]12 | Escherichia coli | s⁻¹ | 13
C[C@]1(Cn2ccnn2)[C@H](C(=O)O)N2C(=O)C[C@H]2S1(=O)=O | Escherichia coli | s⁻¹ | 5.3
CC(=O)OCC1=C(C(=O)O)N2C(=O)[C@@H](NC(=O)Cc3cccs3)[C@H]2SC1 | Escherichia coli | s⁻¹ | 280

Give kcat only, for CO/N=C(\C(=O)N[C@@H]1C(=O)N2C(C(=O)[O-])=C(C[N+]3(C)CCCC3)CS[C@H]12)c1csc(N)n1 , using Escherichia coli data.
550
